Source: ChEMBL document CHEMBL1932992

Assay: Neurotoxicity in ip dosed Kunming mouse assessed as minimal motor impairment after 0.5 hrs by rotarod test
Type: toxicity, organism-based
Details: in vivo
endpoint-name: MTD at 0.5 h (mg/kg)

compound	endpoint-name	unit-info	result-number
O=C1NC2(CC2c2ccc3cccc(OCc4ccccc4)c3n2)C(=O)N1c1cc(Cl)cc(Cl)c1 (racemic)	MTD at 0.5 h	mg/kg	300
O=C1NC2(CC2c2ccc3cccc(OCc4ccccc4)c3n2)C(=O)N1c1ccccc1 (racemic)	MTD at 0.5 h	mg/kg	300
O=C1NC2(CC2c2ccc3cccc(OCc4ccccc4)c3n2)C(=O)N1c1ccc(Cl)cc1 (racemic)	MTD at 0.5 h	mg/kg	100
O=C1NC2(CC2c2ccc3cccc(OCc4ccccc4)c3n2)C(=O)N1c1ccc(Br)cc1 (racemic)	MTD at 0.5 h	mg/kg	100
O=C1NC(=O)C2(CC2c2ccc3cccc(OCc4ccccc4)c3n2)N1 (racemic)	MTD at 0.5 h	mg/kg	300

---

Test system: Mus musculus
Experiment: Anticonvulsant activity in ip dosed Kunming mouse assessed as protection against maximal electroshock-induced seizure after 0.5 hrs
Assay type: functional
Details: read-out: MED

compound	minimal effective dose / mg/kg
O=C1NC(=O)C(c2ccccc2)(c2ccccc2)N1 [PHENYTOIN]	30
COc1ccc(N2C(=O)NC3(CC3c3ccc4cccc(OCc5ccccc5)c4n3)C2=O)cc1 (racemic)	30
O=C1NC2(CC2c2ccc3cccc(OCc4ccccc4)c3n2)C(=O)N1c1ccc(C(F)(F)F)cc1 (racemic)	300
CC(C)N1C(=O)NC2(CC2c2ccc3cccc(OCc4ccccc4)c3n2)C1=O (racemic)	300
O=C1NC(=O)C2(CC2c2ccc3cccc(OCc4ccccc4)c3n2)N1 (racemic)	300
O=C1NC2(CC2c2ccc3cccc(OCc4ccccc4)c3n2)C(=O)N1C1CCCCC1 (racemic)	300
Cc1ccc(N2C(=O)NC3(CC3c3ccc4cccc(OCc5ccccc5)c4n3)C2=O)cc1 (racemic)	100
O=C1NC2(CC2c2ccc3cccc(OCc4ccccc4)c3n2)C(=O)N1c1ccc(F)cc1 (racemic)	300
CCCCN1C(=O)NC2(CC2c2ccc3cccc(OCc4ccccc4)c3n2)C1=O (racemic)	300

---

System: Mus musculus
Experiment: Anticonvulsant activity in ip dosed Kunming mouse assessed as protection against subcutaneous pentylenetetrazole-induced seizure after 0.5 hrs
Format: functional
Conditions: read-out: MED

compound	experimental-target	minimal effective dose, mg/kg
CC(C)N1C(=O)NC2(CC2c2ccc3cccc(OCc4ccccc4)c3n2)C1=O (racemic)	Mus musculus	100
O=C1NC2(CC2c2ccc3cccc(OCc4ccccc4)c3n2)C(=O)N1Cc1ccccc1 (racemic)	Mus musculus	300
COc1ccc(N2C(=O)NC3(CC3c3ccc4cccc(OCc5ccccc5)c4n3)C2=O)cc1 (racemic)	Mus musculus	300
O=C1NC2(CC2c2ccc3cccc(OCc4ccccc4)c3n2)C(=O)N1c1ccc([N+](=O)[O-])cc1 (racemic)	Mus musculus	300
O=C1NC2(CC2c2ccc3cccc(OCc4ccccc4)c3n2)C(=O)N1c1cc(Cl)cc(Cl)c1 (racemic)	Mus musculus	300
O=C1NC2(CC2c2ccc3cccc(OCc4ccccc4)c3n2)C(=O)N1C1CCCCC1 (racemic)	Mus musculus	300
CCC1(C)CC(=O)NC1=O (centres undefined) [ETHOSUXIMIDE]	Mus musculus	100
O=C1NC(=O)C2(CC2c2ccc3cccc(OCc4ccccc4)c3n2)N1 (racemic)	Mus musculus	300
CCC(CO)N1C(=O)NC2(CC2c2ccc3cccc(OCc4ccccc4)c3n2)C1=O (racemic)	Mus musculus	100
